Target: Zap1 (UniProt P47043)
Sequence: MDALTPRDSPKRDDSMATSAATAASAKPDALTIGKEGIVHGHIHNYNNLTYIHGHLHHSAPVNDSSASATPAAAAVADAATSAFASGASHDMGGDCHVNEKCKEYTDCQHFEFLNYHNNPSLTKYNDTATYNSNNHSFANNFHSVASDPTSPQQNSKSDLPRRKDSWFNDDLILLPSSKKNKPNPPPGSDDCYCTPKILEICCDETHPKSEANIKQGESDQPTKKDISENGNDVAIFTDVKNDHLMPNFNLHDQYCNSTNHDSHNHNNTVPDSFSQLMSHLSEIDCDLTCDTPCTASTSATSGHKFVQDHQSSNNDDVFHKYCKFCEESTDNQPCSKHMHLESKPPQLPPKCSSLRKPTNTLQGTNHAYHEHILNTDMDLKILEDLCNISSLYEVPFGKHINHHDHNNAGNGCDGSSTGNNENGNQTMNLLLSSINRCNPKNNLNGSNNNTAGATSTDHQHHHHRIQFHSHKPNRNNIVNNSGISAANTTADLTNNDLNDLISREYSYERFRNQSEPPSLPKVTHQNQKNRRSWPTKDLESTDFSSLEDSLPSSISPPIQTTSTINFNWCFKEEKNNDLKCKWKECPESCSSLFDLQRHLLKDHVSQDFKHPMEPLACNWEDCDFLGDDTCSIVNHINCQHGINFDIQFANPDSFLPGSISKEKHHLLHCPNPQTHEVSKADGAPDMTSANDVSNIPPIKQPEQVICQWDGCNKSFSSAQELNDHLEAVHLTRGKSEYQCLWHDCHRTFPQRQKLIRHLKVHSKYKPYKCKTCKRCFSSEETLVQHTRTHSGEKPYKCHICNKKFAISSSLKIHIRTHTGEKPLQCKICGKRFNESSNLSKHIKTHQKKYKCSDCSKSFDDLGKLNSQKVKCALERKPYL
Experiment: PBM E-score (8-mer binding enrichment) (E-score (-0.5 to 0.5)); higher = stronger / more preferred TF binding
Settings: protein concentration: 200 nM; construct: GST-full length
In all, about 33,000 sequences were measured (“E-score (-0.5 to 0.5)”: median about -0.021, highest 2% from about 0.32 on). This excerpt belongs to a sample that is enriched for the highest values.
Exercise: state measured PBM E-score for each of the sequences provided.

{"columns": ["biosequence", "testTarget", "PBM E-score"],
 "data": [
  ["GAGACCTC", "Zap1 (UniProt P47043)", 0.0168],
  ["AGGGTACG", "Zap1 (UniProt P47043)", 0.296]
]}

List reported PBM E-score for each of these sequences:
1. AGGGTACT
2. AAAAACTA
3. GACCAAGA
4. AGGGTACC

[0.441, 0.175, 0.0225, 0.461]

List reported PBM E-score for each of these sequences:
1. GGACCTCC
2. AGGGTACA
3. GGGGTACC
4. TGGTCACA

1: -0.134; 2: 0.337; 3: 0.424; 4: 0.231

###

Molecular target: Zap1 (UniProt P47043)
Sequence: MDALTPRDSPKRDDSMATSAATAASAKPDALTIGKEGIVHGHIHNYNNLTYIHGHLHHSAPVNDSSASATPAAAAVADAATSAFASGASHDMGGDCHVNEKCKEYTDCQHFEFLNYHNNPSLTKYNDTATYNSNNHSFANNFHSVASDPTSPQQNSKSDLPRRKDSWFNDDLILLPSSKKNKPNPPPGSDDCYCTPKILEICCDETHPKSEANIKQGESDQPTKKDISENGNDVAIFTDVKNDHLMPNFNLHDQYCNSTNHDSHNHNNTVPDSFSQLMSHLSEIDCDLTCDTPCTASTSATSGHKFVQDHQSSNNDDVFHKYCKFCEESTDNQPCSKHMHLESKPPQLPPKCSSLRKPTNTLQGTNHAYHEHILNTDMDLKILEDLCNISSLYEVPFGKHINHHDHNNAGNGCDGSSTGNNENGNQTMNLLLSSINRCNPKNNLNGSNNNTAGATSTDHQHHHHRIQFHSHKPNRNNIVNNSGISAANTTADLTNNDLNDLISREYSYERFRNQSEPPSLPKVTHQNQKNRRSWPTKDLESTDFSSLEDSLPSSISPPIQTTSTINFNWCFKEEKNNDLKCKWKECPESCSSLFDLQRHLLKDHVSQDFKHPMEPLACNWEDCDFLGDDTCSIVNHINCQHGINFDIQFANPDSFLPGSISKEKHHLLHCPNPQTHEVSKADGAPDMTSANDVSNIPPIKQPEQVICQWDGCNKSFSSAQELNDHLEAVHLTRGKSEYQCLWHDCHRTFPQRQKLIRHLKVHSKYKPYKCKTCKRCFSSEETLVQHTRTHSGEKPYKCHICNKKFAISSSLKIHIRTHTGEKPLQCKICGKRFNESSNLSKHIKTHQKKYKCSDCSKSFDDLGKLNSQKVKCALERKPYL
Assay: PBM E-score (8-mer binding enrichment) (E-score (-0.5 to 0.5)); higher = stronger / more preferred TF binding
Conditions: protein concentration: 200 nM; construct: GST-full length
Over roughly 33,000 sequences, “E-score (-0.5 to 0.5)” has its median near -0.021; the highest 2% begin near 0.32. The sample as a whole holds a higher share of the highest values than the screen did.
Exercise: state measured PBM E-score for each of the sequences provided.
Answers are plain numbers.

{"columns": ["biosequence", "readoutType", "recordedNumber"],
 "data": [
  ["CATGGTGA", "PBM E-score", 0.0149],
  ["ACAAGTCC", "PBM E-score", -0.0469],
  ["CCGGCGCC", "PBM E-score", -0.114],
  ["CATGGTTC", "PBM E-score", 0.132],
  ["AACCGGTG", "PBM E-score", -0.0964],
  ["CAACTGTC", "PBM E-score", -0.0568]
]}

List reported PBM E-score for each of these sequences:
1. AAGATAGC
2. GATGGTTA
3. CAGCGACA
4. GATGGTGA

1. -0.144
2. 0.392
3. -0.0507
4. -0.0368

List reported PBM E-score for each of these sequences:
1. CAATTCCG
2. AACTAAGG
3. ATAGTTGG
4. AACCGGGT
5. AGAGGCCC
6. AGATCAGA
7. CATAGAGC
8. GGCGACAC

1. -0.00437
2. 0.017
3. -0.0799
4. 0.319
5. -0.108
6. -0.0903
7. -0.238
8. -0.0969

List reported PBM E-score for each of these sequences:
1. CGGTTTCA
2. AATGGTTG
3. ACTGCTTC

1. 0.03
2. 0.254
3. -0.175

Query (sequence): CGATGGCG ; field requested: PBM E-score
-0.284

###

Molecular target: Zap1 (UniProt P47043)
Sequence: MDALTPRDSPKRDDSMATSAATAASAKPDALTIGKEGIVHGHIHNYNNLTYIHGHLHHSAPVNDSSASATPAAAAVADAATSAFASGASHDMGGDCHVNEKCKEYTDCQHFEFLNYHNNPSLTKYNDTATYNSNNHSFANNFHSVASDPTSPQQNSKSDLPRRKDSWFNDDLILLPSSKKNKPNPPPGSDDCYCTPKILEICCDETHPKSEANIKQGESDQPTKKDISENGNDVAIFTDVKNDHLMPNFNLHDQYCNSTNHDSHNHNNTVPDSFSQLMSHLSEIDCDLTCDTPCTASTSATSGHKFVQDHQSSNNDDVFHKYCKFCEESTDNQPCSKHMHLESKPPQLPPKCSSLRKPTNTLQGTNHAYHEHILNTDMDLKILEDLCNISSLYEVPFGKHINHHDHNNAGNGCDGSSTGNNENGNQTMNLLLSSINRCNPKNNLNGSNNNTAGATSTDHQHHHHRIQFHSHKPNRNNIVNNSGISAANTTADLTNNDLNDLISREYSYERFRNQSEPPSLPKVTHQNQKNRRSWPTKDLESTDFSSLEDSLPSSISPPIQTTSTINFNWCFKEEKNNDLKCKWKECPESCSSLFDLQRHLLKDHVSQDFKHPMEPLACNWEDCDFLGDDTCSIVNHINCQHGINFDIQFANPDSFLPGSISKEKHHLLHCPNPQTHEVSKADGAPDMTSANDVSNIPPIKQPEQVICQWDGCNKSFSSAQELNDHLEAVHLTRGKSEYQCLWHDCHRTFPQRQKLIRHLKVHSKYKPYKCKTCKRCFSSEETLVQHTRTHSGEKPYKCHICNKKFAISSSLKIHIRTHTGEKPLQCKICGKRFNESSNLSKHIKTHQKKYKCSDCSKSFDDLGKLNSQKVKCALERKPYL
Experiment: PBM E-score (8-mer binding enrichment) (E-score (-0.5 to 0.5)); higher = stronger / more preferred TF binding
Conditions: protein concentration: 200 nM; construct: GST-full length
Over roughly 33,000 sequences, “E-score (-0.5 to 0.5)” has its median near -0.021; the highest 2% begin near 0.32. For the sample, the highest values were picked, then their nearest neighbours and some sequences at random.
Exercise: state measured PBM E-score for each of the sequences provided.
One number for each entry.

Recorded results for 10 sequences are shown here.
{"columns": ["biosequence", "PBM E-score"],
 "data": [
  ["GGGCTTAA", -0.0211],
  ["GCTATGAA", -0.0097],
  ["AGGTTGTC", 0.242],
  ["CGGTTGCA", -0.0132],
  ["CTTATATA", 0.27],
  ["GTTATTTA", 0.325],
  ["CCGTCCTC", -0.191],
  ["ATTATTTA", 0.234],
  ["GTTATAAA", 0.279],
  ["CTTATAAC", 0.302]
]}

List reported PBM E-score for each of these sequences:
1. AATTCTTG
2. AGCTGAGC
3. GATATATA
4. ATTATATA
5. GTTATAAC
6. ACCCCACC
7. TATATATA

[-0.0794, -0.185, 0.2, 0.207, 0.401, 0.419, 0.37]

List reported PBM E-score for each of these sequences:
1. AACCCACC
2. GACCCACC
3. GCCCCACC
4. AGGTCTGA
5. AACCCACA

1. 0.343
2. 0.245
3. 0.283
4. -0.0295
5. 0.331
